Biological target: Estrogen receptor (Homo sapiens)
Assay: Agonist activity at ERalpha (301 to 553 amino acid residues) (unknown origin) assessed as induction of interaction with SRC1 after 24 hrs by yeast two-hybrid assay relative to isopaucifloral F
ATTRIBUTE MEASURED: fold change (FC)
Answer field: number only, no words.

Oc1ccc([C@@H]2c3c(O)cc(O)cc3[C@H]3[C@H](c4ccccc4)c4c(O)cc(O)cc4[C@@H]23)cc1
0.94
Oc1ccc([C@@H]2c3c(O)cc(O)cc3[C@H]3[C@H](c4ccc(F)cc4)c4c(O)cc(O)cc4[C@@H]23)cc1
0.95
Oc1ccc(CC2=C(c3cc(O)cc(O)c3)C(c3ccccc3)c3c(O)cc(O)cc32)cc1 (stereo unspecified)
0.86

What value of fold change (FC) has been reported for the following compound? `Oc1cc(O)c2c(c1)[C@H]1[C@H](c3ccccc3)c3c(O)cc(O)cc3[C@H]1[C@@H]2c1ccccc1` 0.86

For the compound `Cc1ccc([C@@H]2c3c(O)cc(O)cc3[C@H]3[C@H](c4ccc(O)cc4)c4c(O)cc(O)cc4[C@@H]23)cc1` , what fold change (FC) is on record? 0.99

Need fold change (FC), item `Oc1ccc([C@@H]2c3c(O)cc(O)cc3[C@H]3[C@H](c4ccc(O)cc4)c4c(O)cc(O)cc4[C@@H]23)cc1` 1.01

Report fold change (FC) for Oc1ccc(C2C(c3cc(O)cc(O)c3)=C(Cc3ccc(F)cc3)c3cc(O)cc(O)c32)cc1 (stereo unspecified) please. 0.83

GET /values?readout=fold change (FC)&item= Oc1ccc(C2C(c3cc(O)cc(O)c3)=C(Cc3ccc(Cl)cc3)c3cc(O)cc(O)c32)cc1 (stereo unspecified) 0.88

Entry `Oc1ccc(/C=C2/c3cc(O)cc(O)c3[C@@H](c3ccc(O)cc3)[C@@H]2c2cc(O)cc(O)c2)cc1` has what fold change (FC)? 0.92

Any idea what fold change (FC) was measured for O=C1c2cc(O)cc(O)c2[C@@H](c2ccccc2)[C@@H]1c1cc(O)cc(O)c1 (relative stereo) ? 0.97

// returns reported fold change (FC) for input `Oc1ccc(/C=C/c2cc(O)cc(O)c2)cc1` 0.1

// returns reported fold change (FC) for input Oc1ccc(C2C(c3cc(O)cc(O)c3)=C(Cc3ccccc3)c3cc(O)cc(O)c32)cc1 (stereo unspecified) 0.98

May I ask what fold change (FC) has been recorded for Oc1ccc(CC2=C(c3cc(O)cc(O)c3)C(c3ccc(O)cc3)c3c(O)cc(O)cc32)cc1 (stereo unspecified) ? 0.94

# lookup: fold change (FC) of Oc1ccc([C@@H]2c3c(O)cc(O)cc3C(O)[C@H]2c2cc(O)cc(O)c2)cc1 (relative stereo) 1.04

Requested field: fold change (FC). Item: Oc1cc(O)cc(C2=C(Cc3ccccc3)c3cc(O)cc(O)c3C2c2ccccc2)c1 (stereo unspecified) 0.88

Requested field: fold change (FC). Item: O=C1c2cc(O)cc(O)c2[C@@H](c2ccc(F)cc2)[C@@H]1c1cc(O)cc(O)c1 (relative stereo) 0.94

====

Each entry below carries its reported EC50.
Molecular target: Estrogen receptor beta (Homo sapiens, UniProt Q92731)
Sequence (Q92731 whole entry, the tested form may be a part): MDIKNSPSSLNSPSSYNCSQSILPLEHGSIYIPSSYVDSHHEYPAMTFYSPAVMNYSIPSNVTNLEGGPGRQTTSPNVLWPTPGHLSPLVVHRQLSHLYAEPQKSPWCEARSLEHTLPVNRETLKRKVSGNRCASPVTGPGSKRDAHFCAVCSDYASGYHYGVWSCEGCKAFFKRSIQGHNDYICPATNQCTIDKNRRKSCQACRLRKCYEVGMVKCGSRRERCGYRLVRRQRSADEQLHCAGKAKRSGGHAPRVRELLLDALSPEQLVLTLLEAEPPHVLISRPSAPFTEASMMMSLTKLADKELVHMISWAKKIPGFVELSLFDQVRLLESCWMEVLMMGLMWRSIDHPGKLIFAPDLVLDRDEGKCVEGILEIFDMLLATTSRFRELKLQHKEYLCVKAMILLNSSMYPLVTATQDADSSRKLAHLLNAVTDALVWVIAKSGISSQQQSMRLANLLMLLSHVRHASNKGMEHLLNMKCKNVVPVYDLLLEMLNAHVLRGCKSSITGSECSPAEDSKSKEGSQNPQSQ
Assay: Agonist activity at ERbeta (248 to 510 amino acid residues) (unknown origin) assessed as induction of interaction with SRC1 after 24 hrs by yeast two-hybrid assay
Give a bare numeral; the unit µM is implied.

Oc1ccc(C2C(c3cc(O)cc(O)c3)=C(Cc3ccc(Cl)cc3)c3cc(O)cc(O)c32)cc1 (stereo not drawn)
45.8
Cc1ccc([C@@H]2c3c(O)cc(O)cc3[C@H]3[C@H](c4ccc(O)cc4)c4c(O)cc(O)cc4[C@@H]23)cc1
5.65

Alright, here's another compound for you.
Can you look up the measured EC50 of `O=C1c2cc(O)cc(O)c2[C@@H](c2ccc(O)cc2)[C@@H]1c1cc(O)cc(O)c1` for me? 47

// provenance: ChEMBL document CHEMBL3616426
